# measured_target: L-lactate dehydrogenase (Plasmodium falciparum (isolate CDC / Honduras))
# experiment_notes: PfLDH activity inhibition – cell lysate, 3D7 strain, counter-screen for P. falciparum growth inhibition project (AID 2304);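 note: 0% = vehicle and 100% = reference inhibitor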
# measurement_setup: P. falciparum 3D7 crude extract, LDH APAD/NBT absorbance; at 2 µM; hits give high values
measured_metric: inhibition (%)
Provide the reading as a plain figure in %.

Here's what some known entries look like.
molecule	inhibition / %
Fc1cccc(Nc2nc(NCc3ccc(Cl)c(Cl)c3)nc(Nc3cccc(F)c3)n2)c1	3
NC(=NCCCc1ccccc1)c1cccc(C(N)=NCCCc2ccccc2)n1	-6
CN1CCN(CC(=O)Nc2cccc(-c3ccc(-c4nc5ccc(C(F)(F)F)cc5[nH]4)cc3)c2)CC1	-3
CC(C)c1ccc(NC(=O)Nc2ccc(CCNCCCc3ccccc3)cc2)cc1	1
CN1CCN(CCCCNc2c3ccccc3nc3ccccc23)CC1	4
CCCCCN1CCCC(NS(=O)(=O)c2ccc(C(=O)Nc3cccc(C(F)(F)F)c3)cc2)C1 (centres undefined)	5
OCCN1CCN(Cc2ccc(-c3cccc(-c4nc5ccc(F)cc5[nH]4)c3)cc2)CC1	-2
CCc1ccc(CN2CCC(NC(=O)c3ccc(-c4ccccc4F)s3)CC2)cc1	2

Exercise: Entry `CCCNCc1ccc(-c2ccc(CN(Cc3cnc(C)cn3)C(=O)c3nn(-c4ccccc4)nc3C)cc2)nc1` : reported inhibition = ?
Key: 0

Exercise: Entry CC(C)C(=O)NC(Nc1ccc([N+](=O)[O-])cc1)C(Cl)(Cl)Cl (centres undefined) : reported inhibition = ?
Key: -6

Exercise: Entry `CCOc1c(OC)ccc2c1CCN(CCN1CCC(NC(=O)c3ccc(-c4cccc(C(F)(F)F)c4C(F)(F)F)cc3)CC1)C2` : reported inhibition = ?
Key: -7

Exercise: Entry `COc1ccc2nccc(NN=CC=Cc3ccccc3)c2c1` : reported inhibition = ?
Key: -3

Exercise: Entry `Nc1ccc(-c2ccc3ccnc(N)c3c2)cn1` : reported inhibition = ?
Key: 3

Exercise: Entry O=C(c1cccs1)N1N=C(c2cccs2)CC1c1cccc([N+](=O)[O-])c1 (centres undefined) : reported inhibition = ?
Key: -10

The measurements presented in this section are drawn from PubChem BioAssay.
